Where do the numbers come from? From patent US8729055B2.

# Test system: NTUB1 cells (human bladder cancer cell line)
# EXPERIMENTAL_PROTOCOL: MTT cytotoxicity assay against NTUB1 cells
# Format: cell-based
# EXPERIMENTAL_SETUP: NTUB1 cells, given when 50% inhibition not reached at the highest concentration (30 μM)
MEASUREMENT_LABEL: % of viability at the highest concentration

# COMPOUND, RESULT
records = [
    ("C[C@H]1[C@H](C)CC[C@]2(C(=O)O)CC[C@]3(C)C(=CC[C@@H]4[C@@](C)(CCC(=O)O)[C@H](C(C)(C)O)CC[C@]43C)[C@H]12 [Compound 22]", "56.04%"),
    ("C=C(C)[C@@H]1CC[C@]2(C)[C@H](CC=C3[C@@H]4[C@@H](C)[C@H](C)CC[C@]4(C(=O)O)CC[C@]32C)[C@@]1(C)CCC(=O)OC [Compound 21]", "62.77%"),
    ("C[C@H]1[C@H](C)CC[C@]2(C(=O)OCC(=O)OC(C)(C)C)CC[C@]3(C)C(=CC[C@@H]4[C@@]5(C)CC[C@H](O)C(C)(C)[C@@H]5CC[C@]43C)[C@H]12 [Compound 11]", "64.85%"),
    ("C[C@H]1[C@H](C)CC[C@]2(C(=O)O)CC[C@]3(C)C(=CC[C@@H]4[C@@]5(C)CCC(=O)OC(C)(C)[C@@H]5CC[C@]43C)[C@H]12 [Compound 20]", "63.91%"),
]
